Data origin, for the record: patent US20250304537A1

molecular target: recombinant human Myt1 (full length PKMYT1) (Homo sapiens (Human), UniProt Q99640); assay: Recombinant human Myt1 kinase assay (ADP-Glo); conditions: 10 μM ATP
Sequence (Q99640 whole entry): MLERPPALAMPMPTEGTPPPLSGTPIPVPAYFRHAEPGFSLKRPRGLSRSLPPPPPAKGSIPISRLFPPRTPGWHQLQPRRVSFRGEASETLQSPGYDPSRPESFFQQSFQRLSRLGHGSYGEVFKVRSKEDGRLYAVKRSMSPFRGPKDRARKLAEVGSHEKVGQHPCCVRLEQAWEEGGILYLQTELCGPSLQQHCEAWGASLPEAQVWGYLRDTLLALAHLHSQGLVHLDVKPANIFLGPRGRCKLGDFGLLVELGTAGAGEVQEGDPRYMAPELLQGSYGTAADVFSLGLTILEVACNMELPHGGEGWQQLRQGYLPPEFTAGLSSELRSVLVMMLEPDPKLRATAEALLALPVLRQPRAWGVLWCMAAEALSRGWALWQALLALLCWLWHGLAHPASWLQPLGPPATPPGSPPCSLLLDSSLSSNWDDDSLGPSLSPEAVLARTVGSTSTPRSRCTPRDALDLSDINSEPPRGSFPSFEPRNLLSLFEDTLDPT
Response field label: string, one of 1 (yes) (IC50 strictly below 20 nM) or 0 (no).

compound	classification
Cc1ccc2[nH]ncc2c1-c1nc(-c2ccccc2N[C@H](C)C(F)(F)F)nc(C(N)=O)c1N	1 (yes)
Cc1ccnc(-c2cc(-c3c(C)ccc4[nH]ncc34)c(N)c(C(N)=O)n2)c1 [Compound 269]	1 (yes)
COC(C)(C)C(=O)Nc1ccccc1-c1nc(C(N)=O)c(N)c(-c2c(C)ccc3[nH]ncc23)n1	1 (yes)
Cc1ccc2[nH]ncc2c1-c1cc(-c2ccnc(O[C@H]3CO[C@H]4OCC[C@H]43)n2)nc(C(N)=O)c1N	1 (yes)
CO[C@@H](COc1cccc(-c2nc(C(N)=O)c(N)c(-c3c(C)ccc4[nH]ncc34)n2)c1)c1ccccc1	0 (no)
Cc1ccnc(-c2cc(-c3c(C)ccc4[nH]ncc34)c(N)c(C(N)=O)n2)c1 (atropisomer, axis not shown) [Compound 280]	1 (yes)
CCCCc1cc(-c2c(C)ccc3[nH]ncc23)c(N)c(C(N)=O)n1	0 (no)
